Source listed as patent US9802937B2.

The molecules below have reported Ki for SYK kinase (Homo sapiens, UniProt P43405).

Guide cases for Ki, answers given:
COc1cccc(-c2nc(Nc3ccc(N(C)C)cc3)c3[nH]ncc3n2)c1 : < 0.01 µM
NC(=O)c1cccc(Nc2nc(-c3ccccc3)nc3cn[nH]c23)c1 : < 0.01 µM
O=C(O)c1ccc(Nc2nc(-c3cn4ccccc4n3)nc3cn[nH]c23)cc1 : < 0.01 µM
CN1CCN(c2ccc(Nc3nc(-c4cc(C(=O)O)cs4)nc4cn[nH]c34)cc2)CC1 : < 0.01 µM
COc1ccc(Nc2nc(-c3cccc(-c4nn[nH]n4)c3)nc3cn[nH]c23)cc1OC : < 0.01 µM

Fill in Ki for each of the 4 molecules listed.
1. c1ccc(-c2nc(Nc3ccc4c(c3)NCCO4)c3[nH]ncc3n2)cc1
2. COc1ccc(-c2nc(Nc3cc(C4CC4)[nH]n3)c3[nH]ncc3n2)cc1
3. CN1CCN(C2CCN(c3ccc(Nc4nc(-c5c(F)cccc5F)nc5cn[nH]c45)cc3)CC2)CC1
4. Cc1ccc(CNCc2cccc(-c3nc(Nc4ccc(N5CCN(C)CC5)cc4)c4[nH]ncc4n3)c2)cc1

1. < 0.01 µM
2. 0.01 to 0.1 µM
3. 0.01 to 0.1 µM
4. 0.01 to 0.1 µM
